Quick reference: EC50 of the listed items.
# Test system: HIV-1 2.12 virus with Thr124/Ala125 variant integrase
# method: C8166 HIV-1 luciferase assay (EC50), T124/A125 integrase variant virus
# Format: cell-based
# condition_notes: Human immunodeficiency virus 1, C8166, read-out: EC50 (nM) T124/A125
Answer in nM, number only, no unit symbol.

Exercise: For the compound Cc1nc2ccccc2c(-c2ccc3ncsc3c2)c1[C@H](OC(C)(C)C)C(=O)O , give its reported EC50.
Solution: 140

Exercise: For the compound Cc1nc2ccccc2c(-c2ccc(CF)cc2F)c1[C@H](OC(C)(C)C)C(=O)O , give its reported EC50.
Solution: 93

Exercise: For the compound Cc1nc2ccccc2c(OC(C)C)c1C(C(=O)O)c1ccc2c3c(ccnc13)CCO2 (centres unmarked) , give its reported EC50.
Solution: 120

Exercise: For the compound Cc1ccc(-c2c([C@H](OC(C)(C)C)C(=O)O)c(C)nc3ccccc23)cc1C , give its reported EC50.
Solution: 49

Exercise: For the compound Cc1nc2ccccc2c(-c2ccc3c(c2)CCO3)c1[C@H](OC(C)(C)C)C(=O)O , give its reported EC50.
Solution: 76
